Please respond with reported normalized growth for every item in the list.
- procedureText: chemical genetic growth profiling, strain panel (AID 1159580);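 further: tested at 20 µM; growth read once vehicle control cultures reached saturation at 30 °C; 1 = growth at the plate median or of vehicle wells; lower values mean less growth of the strain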
- testConditions: S. cerevisiae deletion strains, growth OD, locus YMR223W, strain ubp8, hits give low values
The campaign covered roughly 5,500 compounds. About 2,000 (36%) were called active. Another 18% or so got no clear call; they are omitted. Some of the results follow.
Give bare numbers.

Previously resolved entries follow.
INSERT INTO results (compound, numericresult) VALUES
  ('C=C1C(N)CC2CC1C2(C)C (stereo not given)', 1.02),
  ('CC(=O)Oc1cc(-c2coc3cc(OC(C)=O)c(OC(C)=O)c(OC(C)=O)c3c2=O)cc(OC(C)=O)c1OC(C)=O', 0.938),
  ('COc1ccc(-c2coc3cc(O)cc(O)c3c2=O)cc1', 0.297),
  ('CSc1ccc2c(c1)C(N1CCN(C)CC1)Cc1ccccc1S2 (stereo not given)', 0.779),
  ('COc1ccc(-c2cc(=O)c3ccccc3o2)cc1OC', 0.99);

Each compound below has a reported value. Please supply its normalized growth.
1. COc1ccc2cc3[n+](cc2c1OC)CCc1cc2c(cc1-3)OCO2
2. CC1(C)O[C@@H]2CC3C4C[C@H](F)C5=CC(=O)C=C[C@]5(C)[C@@]4(F)[C@@H](O)C[C@]3(C)[C@]2(C(=O)CO)O1 (stereo not given in full)
3. O=c1c(-c2cc(O)c(O)c(O)c2)coc2cc(O)c(O)c(O)c12

Result:
1: 0.393; 2: 1.04; 3: 0.94

* * *

- procedureText: chemical genetic growth profiling, strain panel (AID 1159580);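 further: tested at 20 µM; growth read once vehicle control cultures reached saturation at 30 °C; 1 = growth at the plate median or of vehicle wells; lower values mean less growth of the strain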
- testConditions: S. cerevisiae deletion strains, growth OD, locus YOR119C, strain RIO1
Among all 5,500 compounds or so, about 2,000 (36%) were called active. About 18% were inconclusive and are not listed. Cut-off read from the data, not from the text of the source: active = normalized growth mostly below about 0.91 (no sharp cut-off); inconclusive = no clear call, values can overlap the other calls; inactive = mostly above about 0.92. The list shows a part of the results.
Respond only with the outcome that fits, drawn from 1 = active, 0 = inactive

Field: example entries. Status: answers known.
INSERT INTO assay_data (compound, discretelabel) VALUES
  ('COc1cc(NC(=S)Nc2ccccc2OC(F)(F)F)cc(C(F)(F)F)c1', 0),
  ('Clc1ccccc1N/N=C\Cc1nnnn1-c1ccccc1', 0),
  ('CCC(C)Cn1c(Sc2ncc([N+](=O)[O-])s2)n[nH]c1=O (configuration not stated)', 0);

Request: What classification did `CCCc1cnc(N2CCN(CC(=O)N(c3ccccc3)C3CCCCC3)CC2)nc1` end up with in this test?
Result: 0

Request: What classification did `O=C1Nc2ccccc2/C1=N/N=C\c1ccccc1Cl` end up with in this test?
Result: 0

Request: What classification did `N#CCCCCOc1ccc2c(=O)cc(-c3ccccc3)oc2c1` end up with in this test?
Result: 0

* * *

- procedureText: chemical genetic growth profiling, strain panel (AID 1159580);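 further: tested at 20 µM; growth read once vehicle control cultures reached saturation at 30 °C; 1 = growth at the plate median or of vehicle wells; lower values mean less growth of the strain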
- testConditions: S. cerevisiae deletion strains, growth OD, locus YHR205W, strain SCH9
Out of some 5,500 compounds screened, about 2,000 (36%) were called active. Roughly 18% stayed inconclusive and do not appear here. Cut-off read from the data, not from the text of the source: active = normalized growth mostly below about 0.91 (no sharp cut-off); inconclusive = no clear call, values can overlap the other calls; inactive = mostly above about 0.92. Some of the results follow.
Respond only with the outcome that fits, drawn from active, inactive

Request: What classification did COc1ccc(C2CC(c3ccccc3)=Nc3ccccc3S2)cc1OC (centres undefined) end up with in this test?
Result: inactive

Request: What classification did `Clc1ccc(-c2csc(Nc3ccccc3)n2)s1` end up with in this test?
Result: active

Request: What classification did `N/C(CSc1ncccc1C(F)(F)F)=N/OC(=O)Nc1cccc(Cl)c1` end up with in this test?
Result: inactive

Request: What classification did `CCn1nc(C)cc1-c1nnc(Sc2ncc([N+](=O)[O-])s2)n1C` end up with in this test?
Result: inactive

Request: What classification did `N=c1ccc2nc3c(Cl)c4c(c(Cl)c3oc-2c1S(=O)(=O)O)Nc1ccc(N)c(S(=O)(=O)O)c1O4` end up with in this test?
Result: inactive

Request: What classification did `CN(C(=O)N(C)c1ccc(Cl)cc1C(=O)c1ccccc1Cl)c1ccc(Cl)cc1C(=O)c1ccccc1Cl` end up with in this test?
Result: inactive

Request: What classification did `O=C(NNC(=O)c1csc(-c2cccs2)n1)c1ccc(C(F)(F)F)cc1` end up with in this test?
Result: inactive

Request: What classification did `N#Cc1c(Br)cnn1Cc1cc(C(F)(F)F)cc(C(F)(F)F)c1` end up with in this test?
Result: inactive

Request: What classification did `O=C(NCc1cccs1)c1csc(Cc2c(Cl)cccc2Cl)n1` end up with in this test?
Result: inactive

Request: What classification did `Cc1ccc(C(=O)O/N=C(/N)CSc2ncccc2C(F)(F)F)cc1` end up with in this test?
Result: inactive

Request: What classification did CCC(C)Cn1c(Sc2ncc([N+](=O)[O-])s2)n[nH]c1=O (centres undefined) end up with in this test?
Result: inactive

Request: What classification did `CC(C)c1ccc(-c2cc(=O)c3ccccc3o2)cc1` end up with in this test?
Result: inactive

Request: What classification did `O=C1Nc2ccccc2/C1=N/N=C\c1ccccc1Cl` end up with in this test?
Result: inactive

Request: What classification did `Cc1nc(-c2ccc(C(F)(F)F)cn2)[nH]c(=O)c1Cl` end up with in this test?
Result: inactive
